A collection of compounds and their measured IC50
- System: HCT-116
- Test protocol: Cytotoxicity against human HCT116 cells after 72 hrs by SRB assay
- Format: functional, cell-based
- Run conditions: HCT-116, 72 h
Give the value, in units of µM, as a plain number.

Worked cases, answers included:
Compound	Unit descriptor	IC50
COC1O[C@H](C)[C@@H](C)c2c(C)c(O)c3c(c21)Oc1cc(O)c(C)c2c1[C@H]3O[C@H](C)[C@H]2C (some centres undefined) [DICITRINOL A]	µM	4.54
CO[C@H]1O[C@H](C)[C@@H](C)c2c(C)c(O)c3c(c21)Oc1c([C@H]2O[C@H](C)[C@@H](C)c4c(C)c(O)cc(O)c42)c(O)c(C)c2c1[C@H]3O[C@H](C)[C@H]2C [TRICITRINOL A]	µM	8.57
COC1O[C@H](C)[C@@H](C)c2c(C)c3c(c(O)c21)[C@@H]1O[C@H](C)[C@@H](C)c2c(C)c(O)c([C@H]4O[C@H](C)[C@@H](C)c5c(C)c(O)cc(O)c54)c(c21)O3 (some centres undefined) [TRICITRINOL B]	µM	4.82

Request: Note down IC50 recorded for COC1O[C@H](C)[C@@H](C)c2c(C)c3c(c(O)c21)[C@@H]1O[C@H](C)[C@@H](C)c2c(C)c(O)cc(c21)O3 (some centres undefined) [DICITRINOL B]
Response: 5.8

The origin of these recorded values is ChEMBL document CHEMBL1821706.
